experiment: prediction of CLt,human by single-species allometric scaling from PXB-mice; parameters: species or system humans; conditions: scaled from CLt in PXB-mice, exponent 0.75
READOUT: Predicted CLt,human, PXB‐SSS (mL/min/kg)

INSERT INTO results (molecule, readout, test_result) VALUES
  ('CN1C(=O)CN=C(c2ccccc2)c2cc(Cl)ccc21 [Diazepam]', 'Predicted CLt,human, PXB‐SSS', 5.68),
  ('CC(C)N(CCC(C(N)=O)(c1ccccc1)c1ccccn1)C(C)C (centres unmarked) [Disopyramide]', 'Predicted CLt,human, PXB‐SSS', 3.72),
  ('COc1cc2nc(N3CCN(C(=O)C4COc5ccccc5O4)CC3)nc(N)c2cc1OC (centres unmarked) [Doxazosin]', 'Predicted CLt,human, PXB‐SSS', 4.61),
  ('CN[C@@H]1C[C@H]2O[C@@](C)([C@@H]1OC)n1c3ccccc3c3c4c(c5c6ccccc6n2c5c31)C(=O)N[C@H]4O [UCN−01, 7‐hydroxystaurosporine]', 'Predicted CLt,human, PXB‐SSS', 0.0050),
  ('Cn1c(=O)c2[nH]cnc2n(C)c1=O [Theophylline]', 'Predicted CLt,human, PXB‐SSS', 0.60),
  ('COc1ccc2cc([C@H](C)C(=O)O)ccc2c1 [(S)‐Naproxen]', 'Predicted CLt,human, PXB‐SSS', 0.072),
  ('Nc1ccc(S(=O)(=O)c2ccc(N)cc2)cc1 [Dapsone]', 'Predicted CLt,human, PXB‐SSS', 0.60),
  ('CC(C)(C)NC[C@H](O)COc1nsnc1N1CCOCC1 [Timolol]', 'Predicted CLt,human, PXB‐SSS', 16.8),
  ('CCCCNC(=O)NS(=O)(=O)c1ccc(C)cc1 [Tolbutamide]', 'Predicted CLt,human, PXB‐SSS', 0.074),
  ('CNC(=C[N+](=O)[O-])NCCSCc1ccc(CN(C)C)o1 [Ranitidine]', 'Predicted CLt,human, PXB‐SSS', 16.9),
  ('CC(=O)C[C@@H](c1ccccc1)c1c(O)c2ccccc2oc1=O [(S)‐Warfarin]', 'Predicted CLt,human, PXB‐SSS', 0.062);

* * *

Catalogue of f u,p, Humans values
experiment: fraction unbound in plasma, equilibrium dialysis; type: in vitro ADME, humans; settings: fraction unbound in human plasma
READOUT: f u,p, Humans

INSERT INTO assay_data (compound, test_result) VALUES
  ('Nc1ccc(S(=O)(=O)c2ccc(N)cc2)cc1', 0.381),
  ('Cc1cc(=O)n(-c2ccccc2)n1C [Antipyrine]', 0.990),
  ('CNC(=C[N+](=O)[O-])NCCSCc1ccc(CN(C)C)o1', 1.000),
  ('CC(C)(C)NC[C@H](O)COc1nsnc1N1CCOCC1', 0.715),
  ('COc1cc2nc(N3CCN(C(=O)C4COc5ccccc5O4)CC3)nc(N)c2cc1OC (stereo not drawn)', 0.066),
  ('CN[C@@H]1C[C@H]2O[C@@](C)([C@@H]1OC)n1c3ccccc3c3c4c(c5c6ccccc6n2c5c31)C(=O)N[C@H]4O [UCN−01, 7‐hydroxystaurosporine]', 0.003),
  ('CCNC(=O)OC1CCN(c2nncc3cc(OC)c(OC)cc23)CC1', 0.148),
  ('CC(C)N(CCC(C(N)=O)(c1ccccc1)c1ccccn1)C(C)C (stereo not drawn) [Disopyramide]', 0.161),
  ('CN1C(C(=O)Nc2ccccn2)=C(O)c2sccc2S1(=O)=O', 0.015);

* * *

Each entry below carries its reported CLint per hepatocyte, Humans.
tested on: cryopreserved human hepatocytes; assay: in vitro metabolic stability assay using cryopreserved human hepatocytes; details: in vitro, human hepatocytes; corrected with fraction unbound in hepatocytes and medium
READOUT: CLint per hepatocyte, Humans (µl/min/1 × 10^6 cells)

INSERT INTO assay_data (molecule, target_entity, test_result) VALUES
  ('CN[C@@H]1C[C@H]2O[C@@](C)([C@@H]1OC)n1c3ccccc3c3c4c(c5c6ccccc6n2c5c31)C(=O)N[C@H]4O [UCN−01, 7‐hydroxystaurosporine]', 'cryopreserved human hepatocytes', 83.5),
  ('CCOc1ccccc1OC(c1ccccc1)C1CNCCO1 (centres unmarked) [Reboxetine]', 'cryopreserved human hepatocytes', 13.9),
  ('COc1cc2nc(N3CCN(C(=O)C4COc5ccccc5O4)CC3)nc(N)c2cc1OC (centres unmarked) [Doxazosin]', 'cryopreserved human hepatocytes', 41.5),
  ('COc1ccccc1Oc1c(NS(=O)(=O)c2ccc(C(C)(C)C)cc2)nc(-c2ncccn2)nc1OCCO [Bosentan]', 'cryopreserved human hepatocytes', 12.3),
  ('CC(C)N(CCC(C(N)=O)(c1ccccc1)c1ccccn1)C(C)C (centres unmarked) [Disopyramide]', 'cryopreserved human hepatocytes', 3.2);

* * *

assay: prediction of CLt,human by single-species allometric scaling from PXB-mice; set-up: species or system humans; details: scaled from CLt in PXB-mice, exponent 0.75
READOUT: Predicted CLt,human, PXB‐SSS

INSERT INTO results (molecule, test_result) VALUES
  ('CN1C(C(=O)Nc2ccccn2)=C(O)c2sccc2S1(=O)=O [Tenoxicam]', '0.039 mL/min/kg'),
  ('CCNC(=O)OC1CCN(c2nncc3cc(OC)c(OC)cc23)CC1 [Carbazeran]', '12.8 mL/min/kg'),
  ('COc1ccccc1Oc1c(NS(=O)(=O)c2ccc(C(C)(C)C)cc2)nc(-c2ncccn2)nc1OCCO [Bosentan]', '1.18 mL/min/kg'),
  ('Cc1cc(=O)n(-c2ccccc2)n1C [Antipyrine]', '0.59 mL/min/kg'),
  ('CCOc1ccccc1OC(c1ccccc1)C1CNCCO1 (centres unmarked) [Reboxetine]', '2.39 mL/min/kg');

* * *

test: prediction of CLt,human by physiologically based scaling using PXB-mice; design: species or system humans; conditions: from CLt in PXB-mice, dispersion model, CLint per hepatocyte assumed equal
// label = 1 if Predicted CLt,human, PXB‐PBS is not less than 0.7 mL/min/kg, otherwise -1

INSERT INTO measurements (compound, cat) VALUES
  ('COc1ccc2cc([C@H](C)C(=O)O)ccc2c1 [(S)‐Naproxen]', -1),
  ('CC(C)(C)NC[C@H](O)COc1nsnc1N1CCOCC1', 1),
  ('CNC(=C[N+](=O)[O-])NCCSCc1ccc(CN(C)C)o1', 1),
  ('COc1cc2nc(N3CCN(C(=O)C4COc5ccccc5O4)CC3)nc(N)c2cc1OC (stereo not shown)', 1),
  ('COc1ccccc1Oc1c(NS(=O)(=O)c2ccc(C(C)(C)C)cc2)nc(-c2ncccn2)nc1OCCO', 1),
  ('CC(=O)C[C@@H](c1ccccc1)c1c(O)c2ccccc2oc1=O [(S)‐Warfarin]', -1);

* * *

The compounds listed here are annotated with their Predicted CLt,human, ROE.
assay: prediction of CLt,human by multispecies allometric scaling, rule of exponent; conditions: from CLt in rats, monkeys and dogs
READOUT: Predicted CLt,human, ROE (mL/min/kg)

INSERT INTO measurements (compound, test_result) VALUES
  ('Cn1c(=O)c2[nH]cnc2n(C)c1=O', 0.68),
  ('CNC(=C[N+](=O)[O-])NCCSCc1ccc(CN(C)C)o1', 5.4),
  ('COc1ccccc1Oc1c(NS(=O)(=O)c2ccc(C(C)(C)C)cc2)nc(-c2ncccn2)nc1OCCO', 1.68),
  ('CN1C(=O)CN=C(c2ccccc2)c2cc(Cl)ccc21', 12.46),
  ('CCCCNC(=O)NS(=O)(=O)c1ccc(C)cc1 [Tolbutamide]', 0.040),
  ('CC(=O)C[C@@H](c1ccccc1)c1c(O)c2ccccc2oc1=O [(S)‐Warfarin]', 0.417),
  ('CN[C@@H]1C[C@H]2O[C@@](C)([C@@H]1OC)n1c3ccccc3c3c4c(c5c6ccccc6n2c5c31)C(=O)N[C@H]4O [UCN−01, 7‐hydroxystaurosporine]', 1.5640),
  ('COc1cc2nc(N3CCN(C(=O)C4COc5ccccc5O4)CC3)nc(N)c2cc1OC (stereo not drawn)', 3.93),
  ('CCNC(=O)OC1CCN(c2nncc3cc(OC)c(OC)cc23)CC1', 8.6);

* * *

assay: prediction of CLt,human by in vitro–in vivo extrapolation; parameters: species or system humans; conditions: from in vitro CLint per human hepatocyte, dispersion model
READOUT: Predicted CLt,human, IVIVE (L/h/kg)

INSERT INTO assay_data (compound, test_result) VALUES
  ('COc1cc2nc(N3CCN(C(=O)C4COc5ccccc5O4)CC3)nc(N)c2cc1OC (stereo not shown)', 0.337),
  ('CCOc1ccccc1OC(c1ccccc1)C1CNCCO1 (stereo not shown)', 0.0822),
  ('CCNC(=O)OC1CCN(c2nncc3cc(OC)c(OC)cc23)CC1', 0.93),
  ('COc1ccccc1Oc1c(NS(=O)(=O)c2ccc(C(C)(C)C)cc2)nc(-c2ncccn2)nc1OCCO', 0.0408),
  ('CN1C(=O)CN=C(c2ccccc2)c2cc(Cl)ccc21', 0.0414),
  ('CN[C@@H]1C[C@H]2O[C@@](C)([C@@H]1OC)n1c3ccccc3c3c4c(c5c6ccccc6n2c5c31)C(=O)N[C@H]4O [UCN−01, 7‐hydroxystaurosporine]', 0.03712),
  ('CC(C)N(CCC(C(N)=O)(c1ccccc1)c1ccccn1)C(C)C (stereo not shown) [Disopyramide]', 0.0744);
